- ASSAY METHOD TEXT: Oral bioavailability in rat at 1 mg/kg
- Type: ADME, organism-based
- MEASUREMENT CONDITIONS: in vivo
Examples of compounds with documented bioavailability follow.
API: value field is a number in %; no unit string.

Below are worked cases with known answers.
COc1ccc(C(=O)C2=C(O)C(=O)N(c3ccc(-c4cc(C)no4)cc3)C2C2CCCCC2)cc1 (stereo not given)
0.5
COc1ccc(C(=O)C2=C(O)C(=O)N(c3ccc(-c4ccon4)cc3)C2C2CCCCC2)cc1 (stereo not given)
10.2
COc1ccc(C(=O)C2=C(O)C(=O)N(c3ccc(-c4nc(C)no4)cc3)C2C2CCCCC2)cc1 (stereo not given)
13.5
COc1ccc(C(=O)C2=C(O)C(=O)N(c3ccc(-c4noc(C)n4)cc3)C2C2CCCCC2)cc1 (stereo not given)
7.1

Read the next record carefully.
query: Please give the measured bioavailability for this compound: COc1ccc(C(=O)C2=C(O)C(=O)N(c3ccc(-c4nnc(C)o4)cc3)C2C2CCCCC2)cc1 (stereo not given)
result: 2.9

* * *

The next entries give measured pIC50 for P2X purinoceptor 3 (Homo sapiens).
pIC50 is a log-scale quantity: -log10 of the concentration expressed in molar.

Below are worked cases with known answers.
CCOC(=O)c1ccc(N2C(=O)C(OC)=C(C(=O)c3ccc(OC)cc3)C2c2ccccc2)cc1 (centres undefined)
5.01
CCOC(=O)c1ccc(N2C(=O)C(O)=C(C(=O)c3ccc(OC)cc3)C2c2ccccc2Cl)cc1 (centres undefined)
7.05
CCOC(=O)c1ccc(N2C(=O)C(O)=C(C(=O)c3ccc(OC)cc3)C2c2ccc(F)cc2)cc1 (centres undefined)
7.70

Read the next record carefully.
query: Write down the reported pIC50 of COc1ccc(C(=O)C2=C(O)C(=O)N(c3ccc(-c4cc(C)no4)cc3)C2C2CCCCC2)cc1 (centres undefined) , test system: P2X purinoceptor 3 (Homo sapiens).
result: 8.05

* * *

- ASSAY TARGET: P2X purinoceptor 3 (Homo sapiens)
- Sequence (P56373 whole entry): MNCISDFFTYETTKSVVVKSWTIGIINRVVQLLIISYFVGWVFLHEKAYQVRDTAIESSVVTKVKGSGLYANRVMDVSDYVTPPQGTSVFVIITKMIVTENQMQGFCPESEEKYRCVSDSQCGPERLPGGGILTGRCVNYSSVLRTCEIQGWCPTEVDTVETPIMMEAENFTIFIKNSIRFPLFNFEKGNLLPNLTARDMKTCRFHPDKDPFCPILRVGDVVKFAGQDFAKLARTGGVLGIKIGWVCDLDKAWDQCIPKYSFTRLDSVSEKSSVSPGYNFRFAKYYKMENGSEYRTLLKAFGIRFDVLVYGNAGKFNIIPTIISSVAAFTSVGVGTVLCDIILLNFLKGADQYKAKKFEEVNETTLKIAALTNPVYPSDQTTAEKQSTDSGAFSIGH
Examples of compounds with documented IC50 follow.
API: value field is a number in µM; no unit string.

Below are worked cases with known answers.
CCOC(=O)c1ccc(N2C(=O)C(O)=C(C(C)=O)C2c2ccccc2)cc1 (stereo not given)
4.79
COc1ccc(C(=O)C2=C(O)C(=O)N(c3ccc(C(C)=O)cc3)C2c2ccccc2)cc1 (stereo not given)
3.28

Read the next record carefully.
query: Please give the measured IC50 for this compound: CCOC(=O)c1ccc(N2C(=O)C(NO)=C(C(=O)c3ccc(OC)cc3)C2c2ccccc2)cc1 (stereo not given)
result: 4.24

The origin of these recorded values is ChEMBL document CHEMBL4118217.
